Please go through the items and note down their Pre-emergence action ALOMY (herbicidal activity in percent).
# System: Alopecurus myosuroides
# method.description: Pre-emergence herbicidal effect
# Type: in vivo
# test.context: 80 g/ha, visual score after 3 weeks vs untreated controls
Please state the figure in %; there is no need to write the unit.

Measured on Alopecurus myosuroides, CC#Cc1cc(Br)c(C2=C(OC(=O)OC)C3(CCC(OCCOC)CC3)NC2=O)c(OC)c1 (stereo not shown) has a documented Pre-emergence action ALOMY (herbicidal activity in percent) of 100

Measured on Alopecurus myosuroides, `CC#Cc1cc(Br)c(C2=C(OC(=O)OCC)C3(CCC4(CC3)OCCO4)NC2=O)c(OC)c1` has a documented Pre-emergence action ALOMY (herbicidal activity in percent) of 90

Measured on Alopecurus myosuroides, `CC#Cc1cc(Br)c(C2=C(O)C3(CCC4(CC3)OCCO4)NC2=O)c(OC)c1` has a documented Pre-emergence action ALOMY (herbicidal activity in percent) of 100

Measured on Alopecurus myosuroides, C=CCOC1CCC2(CC1)NC(=O)C(c1c(Br)cc(C#CC)cc1OC)=C2OC(=O)OC (stereo not shown) has a documented Pre-emergence action ALOMY (herbicidal activity in percent) of 100

###

Please go through the items and note down their Pre-emergence action LOLRI (herbicidal activity in percent).
# System: Lolium rigidum
# method.description: Pre-emergence herbicidal effect
# Format: in vivo
# test.context: 80 g/ha, visual score after 3 weeks vs untreated controls
Please state the figure in %; there is no need to write the unit.

Short answer for `CC#Cc1cc(Br)c(C2=C(O)C3(CCC4(CC3)OCCO4)NC2=O)c(OC)c1` : Pre-emergence action LOLRI (herbicidal activity in percent) was 100

Short answer for CC#Cc1cc(Br)c(C2=C(OC(=O)OCC)C3(CCC(OCCOC)CC3)NC2=O)c(OC)c1 (stereo not drawn) : Pre-emergence action LOLRI (herbicidal activity in percent) was 100

Short answer for CC#Cc1cc(Br)c(C2=C(O)C3(CCC(OCCOC)CC3)NC2=O)c(OC)c1 (stereo not drawn) : Pre-emergence action LOLRI (herbicidal activity in percent) was 100

Short answer for C=CCOC1CCC2(CC1)NC(=O)C(c1c(Br)cc(C#CC)cc1OC)=C2O (stereo not drawn) : Pre-emergence action LOLRI (herbicidal activity in percent) was 100

Short answer for CC#Cc1cc(Br)c(C2=C(OC(=O)OCC)C3(CCC(OC(C)C)CC3)NC2=O)c(OC)c1 (stereo not drawn) : Pre-emergence action LOLRI (herbicidal activity in percent) was 100

Short answer for CC#Cc1cc(Br)c(C2=C(OC(=O)OC)C3(CCC(OC(C)C)CC3)NC2=O)c(OC)c1 (stereo not drawn) : Pre-emergence action LOLRI (herbicidal activity in percent) was 100

Short answer for C=CCOC1CCC2(CC1)NC(=O)C(c1c(Br)cc(C#CC)cc1OC)=C2OC(=O)OC (stereo not drawn) : Pre-emergence action LOLRI (herbicidal activity in percent) was 100

Short answer for CC#Cc1cc(Br)c(C2=C(OC(=O)OC)C3(CCC(OCCOC)CC3)NC2=O)c(OC)c1 (stereo not drawn) : Pre-emergence action LOLRI (herbicidal activity in percent) was 100

Short answer for CC#Cc1cc(Br)c(C2=C(O)C3(CCC(OC(C)C)CC3)NC2=O)c(OC)c1 (stereo not drawn) : Pre-emergence action LOLRI (herbicidal activity in percent) was 100

Short answer for `CC#Cc1cc(Br)c(C2=C(OC(=O)OCC)C3(CCC4(CC3)OCCO4)NC2=O)c(OC)c1` : Pre-emergence action LOLRI (herbicidal activity in percent) was 100

Short answer for `CC#Cc1cc(Br)c(C2=C(O)C3(CCOCC3)NC2=O)c(OC)c1` : Pre-emergence action LOLRI (herbicidal activity in percent) was 100

Short answer for C=CCOC1CCC2(CC1)NC(=O)C(c1c(Br)cc(C#CC)cc1OC)=C2OC(=O)C(C)C (stereo not drawn) : Pre-emergence action LOLRI (herbicidal activity in percent) was 100

Short answer for C=CCOC1CCC2(CC1)NC(=O)C(c1c(Br)cc(C#CC)cc1OC)=C2OC(=O)OCC (stereo not drawn) : Pre-emergence action LOLRI (herbicidal activity in percent) was 100

Short answer for `CC#Cc1cc(Br)c(C2=C(OC(=O)OC)C3(CCOCC3)NC2=O)c(OC)c1` : Pre-emergence action LOLRI (herbicidal activity in percent) was 100

Short answer for CC#Cc1cc(Br)c(C2=C(OC(C)=O)C3(CCC(OCCOC)CC3)NC2=O)c(OC)c1 (stereo not drawn) : Pre-emergence action LOLRI (herbicidal activity in percent) was 100
